molecular target: membrane-bound IgM (mIgM, immunoglobulin heavy mu chain of B-cell receptor) (Homo sapiens, UniProt P01871 P01871:1-474); experiment: flow; Bmax/2 (Kd') on Ramos cells, 4 C, 5 mM MgCl2; conditions: tags: endogenous on Ramos Burkitt's lymphoma cells; label: 5' FITC or Cy3; stem-loop hairpin
Sequence (P01871 whole entry, one chain of several): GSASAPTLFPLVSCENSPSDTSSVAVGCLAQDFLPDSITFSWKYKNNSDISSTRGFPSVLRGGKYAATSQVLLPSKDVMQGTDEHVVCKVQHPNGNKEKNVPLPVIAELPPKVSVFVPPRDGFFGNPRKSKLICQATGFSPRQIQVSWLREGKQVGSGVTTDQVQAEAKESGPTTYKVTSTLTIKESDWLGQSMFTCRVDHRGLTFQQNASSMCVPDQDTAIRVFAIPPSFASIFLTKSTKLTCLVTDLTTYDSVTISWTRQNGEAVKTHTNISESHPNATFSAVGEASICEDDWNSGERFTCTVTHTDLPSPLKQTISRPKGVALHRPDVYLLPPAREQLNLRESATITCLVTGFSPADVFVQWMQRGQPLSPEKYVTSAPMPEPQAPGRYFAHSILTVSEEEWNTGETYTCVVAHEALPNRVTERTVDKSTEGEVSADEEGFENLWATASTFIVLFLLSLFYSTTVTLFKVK
measurement name: Kd (nM)
Provide the reading as a plain figure in nM.

**Q:** I would be grateful if you could share the reported Kd for ACCGTGGAGGATAGTTCGGTGGCTGTTCAGGGTCTCCTCCACGGT (ssDNA) [TD05] .
**A:** 359
